Sourced from ChEMBL document CHEMBL1201862

System: A549
Assay: NCI tumour cell line growth inhibition, 48 h
Calls of active or inactive are those of the source. Cut-off read from the data, not from the text of the source: active = GI50 up to about 1.1 µM and inactive = higher.
So I've got a bunch of molecules here, and I need their GI50 values.

Record `C/C(=N\C1CCCCC1)c1ccccc1O` , field GI50: > 100 µM (inactive)

Reported GI50 ( `O=[N+]([O-])c1ccccc1S(=O)(=O)c1cc(O)cc2c1NCCC2` ) = 29.8 µM (inactive)

Lab note: `Cc1csc(/N=C(/NCCN2CCOCC2)Nc2nc(C)cs2)n1` gave GI50 of > 100 µM (inactive)

Form field GI50, entry `COC(=O)/C=C\C(C#N)(C#N)/N=C/c1cccs1` : 22.6 µM (inactive)

What the record says about `N#CCOc1ccc(/C=C/C(=O)c2ccc(Cl)cc2)cc1` : GI50 is 39.7 µM (inactive)

Recorded result, `CCOC(=O)c1sc2c(c1OC(=O)c1ccccc1)c(=O)n(-c1ccccc1)c(=S)n2-c1ccccc1` , GI50: 26.1 µM (inactive)

Quick note, GI50 for `CCN1C[C@]2(C)CC[C@H](OC)C34C1C([C@H](OC(C)=O)[C@@H]32)[C@@]1(OC)C[C@H](OC)[C@H]2C[C@@H]4[C@@H]1[C@H]2O` landed at > 100 µM (inactive)

Looking up `Cc1cc2c(C)nn(Cc3ccccc3Cl)c2c(C#N)c1C` , I found its GI50 recorded as > 100 µM (inactive)

Sample `CN(C)c1ccc(-c2ccc(N(C)C)c3n[se]nc23)c2n[se]nc12` ; GI50 observed: > 100 µM (inactive)

Recorded result, OCCNc1ncnc2c1ncn2C1OC(CO)C(O)C1O (stereo not given) , GI50: > 100 µM (inactive)
